tested-on: Dopamine, D4.4 (Human Recombinant) (Homo sapiens, UniProt P21917)
Construct: expressed in transfected cells; host or cells: CHO cells (membranes)
Sequence (P21917 1-419): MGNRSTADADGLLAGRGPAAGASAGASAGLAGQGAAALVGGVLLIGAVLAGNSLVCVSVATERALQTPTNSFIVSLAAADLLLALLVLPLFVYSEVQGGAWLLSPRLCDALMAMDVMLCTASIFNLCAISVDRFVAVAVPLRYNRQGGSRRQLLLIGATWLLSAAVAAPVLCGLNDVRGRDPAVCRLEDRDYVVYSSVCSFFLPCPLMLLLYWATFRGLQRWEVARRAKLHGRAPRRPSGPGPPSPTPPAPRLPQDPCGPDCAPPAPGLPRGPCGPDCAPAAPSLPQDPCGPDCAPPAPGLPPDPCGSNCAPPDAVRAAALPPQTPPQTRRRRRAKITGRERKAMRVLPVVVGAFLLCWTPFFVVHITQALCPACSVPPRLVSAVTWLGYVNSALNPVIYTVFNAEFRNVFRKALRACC
test-summary: dopamine D4.4 receptor binding assay, [3H]spiperone, human recombinant (CHO cells)
test-settings: 1 h, concentration 1.0E-9, average, N = 2, read-out: % Specific Binding
measured-parameter: activity at 0.001 µM (%)

COc1ccc(CN2CCC(c3nc(-c4ccccc4C)no3)CC2)cc1 : 102
Cc1ccc(-c2noc(C3CCN(Cc4ccc(Cl)c(Cl)c4)CC3)n2)cc1 : 80.2
Clc1ccc(CN2CCC(c3nc(-c4cccs4)no3)CC2)cc1 : 76
Clc1cccc(CN2CCC(c3nc(-c4cccs4)no3)CC2)c1 : 107

* * *

tested-on: Dopamine, D4.4 (Human Recombinant) (Homo sapiens)
Construct: expressed in transfected cells; host or cells: CHO cells (membranes)
test-summary: dopamine D4.4 receptor binding assay, [3H]spiperone, human recombinant (CHO cells)
test-settings: 1 h, concentration 3.0E-6, average, N = 2, read-out: % Specific Binding
measured-parameter: activity at 3 µM (%)

(1) Cc1ccc(-c2noc(C3CCN(Cc4ccc(Cl)c(Cl)c4)CC3)n2)cc1
(2) Clc1cccc(CN2CCC(c3nc(-c4cccs4)no3)CC2)c1
(3) Clc1ccc(CN2CCC(c3nc(-c4cccs4)no3)CC2)cc1
Ask | # rank above entries by activity at 3 µM (max first, min last) Labels, ranked as asked.
Reply | 1, 2, 3
(1: 16.4%, 2: 4.6%, 3: -0.19%)

* * *

tested-on: Dopamine, D2s (Human Recombinant) (Homo sapiens, UniProt P14416)
Construct: expressed in transfected cells; host or cells: A9L cells (membranes)
Sequence (P14416 1-414 isoform P14416-2): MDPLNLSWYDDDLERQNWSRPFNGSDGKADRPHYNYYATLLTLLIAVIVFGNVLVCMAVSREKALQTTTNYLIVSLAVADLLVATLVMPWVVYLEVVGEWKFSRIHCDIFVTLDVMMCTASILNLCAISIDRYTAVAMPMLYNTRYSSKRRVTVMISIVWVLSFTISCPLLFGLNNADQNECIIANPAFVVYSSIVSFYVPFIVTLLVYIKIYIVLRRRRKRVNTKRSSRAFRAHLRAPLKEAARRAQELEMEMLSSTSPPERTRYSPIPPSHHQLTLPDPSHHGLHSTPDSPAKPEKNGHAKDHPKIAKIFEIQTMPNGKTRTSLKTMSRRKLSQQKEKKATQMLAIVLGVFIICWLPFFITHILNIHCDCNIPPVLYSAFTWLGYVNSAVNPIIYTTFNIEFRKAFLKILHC
test-summary: dopamine D2 receptor binding assay, [3H]spiperone, human recombinant (A9L cells)
test-settings: 1 h, concentration 3.0E-6, average, N = 2, read-out: % Specific Binding
measured-parameter: activity at 3 µM (%)

Example molecules with recorded activity at 3 µM:
COc1ccc(CN2CCC(c3nc(-c4ccccc4C)no3)CC2)cc1 [Compound 5d] : 113
Clc1cccc(CN2CCC(c3nc(-c4cccs4)no3)CC2)c1 [Compound 5c] : 102

(P) Cc1ccc(-c2noc(C3CCN(Cc4ccc(Cl)c(Cl)c4)CC3)n2)cc1 [Compound 5a]
(Q) Clc1ccc(CN2CCC(c3nc(-c4cccs4)no3)CC2)cc1 [Compound 5b]
Ask | Pick one, P or Q : lowest reported activity at 3 µM. Return value: the label identifying the chosen record.
Reply | Q
(Q: 61.9%, P: 99.4%)

* * *

tested-on: Dopamine, D2s (Human Recombinant) (Homo sapiens)
Construct: expressed in transfected cells; host or cells: A9L cells (membranes)
test-summary: dopamine D2 receptor binding assay, [3H]spiperone, human recombinant (A9L cells)
test-settings: 1 h, concentration 3.0E-9, average, N = 2, read-out: % Specific Binding
measured-parameter: activity at 0.003 µM (%)

Cc1ccc(-c2noc(C3CCN(Cc4ccc(Cl)c(Cl)c4)CC3)n2)cc1 : 90.8
COc1ccc(CN2CCC(c3nc(-c4ccccc4C)no3)CC2)cc1 : 105
Clc1ccc(CN2CCC(c3nc(-c4cccs4)no3)CC2)cc1 : 97.3
Clc1cccc(CN2CCC(c3nc(-c4cccs4)no3)CC2)c1 : 108

* * *

tested-on: Dopamine, D4.4 (Human Recombinant) (Homo sapiens, UniProt P21917)
Construct: expressed in transfected cells; host or cells: CHO cells (membranes)
test-summary: dopamine D4.4 receptor binding assay, [3H]spiperone, human recombinant (CHO cells)
test-settings: 1 h, concentration 3.0E-10, average, N = 2, read-out: % Specific Binding
measured-parameter: activity at 0.0003 µM (%)

Cc1ccc(-c2noc(C3CCN(Cc4ccc(Cl)c(Cl)c4)CC3)n2)cc1 : 90.9
Clc1cccc(CN2CCC(c3nc(-c4cccs4)no3)CC2)c1 : 109
Clc1ccc(CN2CCC(c3nc(-c4cccs4)no3)CC2)cc1 : 82.3
COc1ccc(CN2CCC(c3nc(-c4ccccc4C)no3)CC2)cc1 : 101
